# Test system: LX-1 lung xenograft sc, nude mice, tumor weight
# experimental_details: NCI In Vivo Anticancer Drug Screen. Data for tumor model Human Lung LX-1 Xenograft (subcutaneous) in NU/NU Swiss (nude) mice
# reported_conditions: endpoint: optimum tumor weight change; dose: 12.5 mg/kg/injection; schedule: Q04DX003 (ip); vehicle: saline; higher = larger tumour
experimental_endpoint: T/C

> print(dat)
                                   compound  experimental.endpoint      test.result
1                  CNC(=O)ON(C(C)=O)C(=O)NC                    T/C  94 % of control
2  COc1cccc2c1C(=O)c1c(O)c3c(c(O)c1C2=O)C[C@@](O)(/C(C)=N\O)C[C@@H]3OC1CC(N)C(O)C(C)O1 (some centres undefined)                    T/C  55 % of control

What value of T/C on LX-1 lung xenograft sc, nude mice, tumor weight does CN1CCN(CCCN2c3ccccc3Sc3ccc(C(F)(F)F)cc32)CC1 have?
78 % of control

Lookup: T/C / LX-1 lung xenograft sc, nude mice, tumor weight / C=C(C)[C@H]1Cc2c(ccc3c2O[C@@H]2COc4cc(OC)c(OC)cc4[C@@H]2C3=O)O1
91 % of control

====

Below, each of the compounds is paired with its reported T/C value.
# Test system: LX-1 lung xenograft sc, nude mice, tumor weight
# experimental_details: NCI In Vivo Anticancer Drug Screen. Data for tumor model Human Lung LX-1 Xenograft (subcutaneous) in NU/NU Swiss (nude) mice
# reported_conditions: endpoint: optimum tumor weight change; dose: 400.0 mg/kg/injection; schedule: Q04DX003 (ip); vehicle: suspension in saline; higher = larger tumour

Examples from the recorded data:
> print(dat)
                                   compound                              study.system  experimental.endpoint      test.result
1  CC(=O)OCC1OC(n2ccc(N)nc2=O)C(OC(C)=O)C1OC(C)=O (centres undefined)  LX-1 lung xenograft sc, nude mice, tumor weight                    T/C  78 % of control
2           N[C@H](C(=O)O)[C@@H]1CC(Cl)=NO1  LX-1 lung xenograft sc, nude mice, tumor weight                    T/C  15 % of control
3  O=C[C@@H](CO)O[C@H](C=O)n1cnc2c(=O)[nH]cnc21  LX-1 lung xenograft sc, nude mice, tumor weight                    T/C  62 % of control

Hi! What's the reported T/C for COC(OC(CO)C(O)S(=O)(=O)O)C(O)S(=O)(=O)O (centres undefined) on LX-1 lung xenograft sc, nude mice, tumor weight?
82 % of control

====

# System: LX-1 lung xenograft sc, nude mice, tumor weight
# experimental_details: NCI In Vivo Anticancer Drug Screen. Data for tumor model Human Lung LX-1 Xenograft (subcutaneous) in NU/NU Swiss (nude) mice
# reported_conditions: endpoint: optimum tumor weight change; dose: 5.0 mg/kg/injection; schedule: Q04DX003 (ip); vehicle: Klucel (hydroxypropylcellulose) (HPC); higher = larger tumour
# Procedure: The antitumor activity of compounds was measured in mice bearing transplantable tumors. Survival or tumor size were measured and the results are expressed as the measurement made in the treated group (T) divided by the measurement made in the vehicle treated control group (C). The tumor model used in this assay is Human Lung LX-1 Xenograft (subcutaneous) in NU/NU Swiss (nude) mice
Entries and their T/C

Sample answers from the record:
> print(dat)
                                   compound  experimental.endpoint      test.result
1  COC1C(C)OC(OC2CC(C)(O)Cc3cc4c(c(O)c32)C(=O)c2c(O)cc3c(c2C4=O)OC2OC3(C)C(O)C(N(C)C)C2O)C(OC)C1(C)OC (centres undefined)                    T/C  75 % of control
2  N/C(=N\O)c1cn(C2OC(CO)C(O)C2O)c2ncnc(N)c12 (centres undefined)                    T/C  70 % of control
3  NC(Cc1ccc(N(CCCl)CCCl)cc1)C(=O)O (centres undefined)                    T/C  66 % of control

We next turn to a different compound, shown below.
Provide the documented T/C with LX-1 lung xenograft sc, nude mice, tumor weight as the system for CC1CCC(NC(=O)N(CCCl)N=O)CC1 (centres undefined)
73 % of control
